Here, each record is paired with measured polymerase ribozyme fitness (log ratio) data.
B1: TPR 5TU (parent)
chain: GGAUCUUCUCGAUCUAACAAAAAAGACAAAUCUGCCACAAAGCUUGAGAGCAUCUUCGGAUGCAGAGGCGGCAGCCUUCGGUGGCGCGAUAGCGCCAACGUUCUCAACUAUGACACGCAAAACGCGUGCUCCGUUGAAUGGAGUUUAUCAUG

Variants of: B1
Assay: polymerase ribozyme fitness, log enrichment relative to wild type (log ratio); higher = more active; in vitro selection for triplet polymerase activity
Variants at the floor of the assay were thinned out.
Parameter: polymerase ribozyme fitness (log ratio)

Variant Spec	Limit Operator	Recorded Value
U7G A20C U56A C72G A73G C85U C93G A98G A115U	≤	-4.2
C93U C95G A113G A137U A138U	≤	-4.2
U9A U31G C57U G74C G92C	≤	-4.2
A30C G42A C54U G58A U90G C93G C96U C125A U148A	≤	-4.2
G81C G92A	=	-3.5
A17U C69U G84C A97G	≤	-4.2
A26G C76A	=	-3.95
A49U A150U	=	-0.0151
A17U A26C C38U G83A G124U	=	-3.97
G84A G92C	=	-3.25
G50U A91U	≤	-4.2
C38G	=	-0.296
C27A C93U C116U G126A A147G	≤	-4.2
C5A A28U	=	-3.92
G58A U61A C87A G117A	≤	-4.2
G42C C43A U55G C57U A66C A137C G141C	≤	-4.2
G70A C75U C87G C99G C103A G140U U144G U146G	≤	-4.2
G34C G88U U144A	≤	-4.2
A49C G50U U78G C85U A97G U102G A107U A142C	≤	-4.2
G11A A21U C87A	≤	-4.2
C38A A66G G70A	≤	-4.2
A3C A47C G59C G86A	=	-3.89
U6A A41C G50C G84A A119G	=	-3.27
C35U G92C U135C	=	-2.73
U13C G88A C99G	=	-4.01
A66G G92C C105U	=	-4.03
A16G A17U A52C A91U C93U U111G C123U G124U G133A	≤	-4.2
A52G A60U G71A A121U U135G U148A	=	-4.18
A22U G50C U53G G88C C93U C96U C108U	≤	-4.2
U134C	=	0.0692
C93A C105A	≤	-4.2
A30U A49C G58A A119C G128U U134G	≤	-4.2
C93U C125U	=	-1.43
U127G A147U	=	-3.92
C14U A22U A41U A120C	=	-3.1
A41C G59A G86U	=	-2.6
U56A G83C A122G G152U	=	-3.94
A20C A22C A39G G71A C85A G94C	≤	-4.2
A29U A52G U55C U134A	≤	-4.2
U82G G86U U102G U130G A147U	≤	-4.2
A17G C85G	=	-1.33
G81A G94A G143U	=	-2.83
G65A A113G	=	-3.91
C57U G86A C99G	=	-3.33
U53G G58A	=	-1.53
G11U A23U G68A U130G U135C	≤	-4.2
